- System: HPK1 p-SLP-76
- test summary: HPK1 p-SLP-76 inhibition assay in human PBMC (HTRF)
- Type: cell-based
- test parameters: 6 h compound, anti-CD3 stimulation 20 min
pIC50: −log10 of the molar value.
reported endpoint: pIC50

compound	subject of test	value observed
O=C1CCN(c2cccc3cc(N4CCC(OCCN5CCN(c6cccc(-c7cnc8[nH]cc(C9CC9)c8c7Cl)n6)C(=O)C5)CC4)ccc23)C(=O)N1	HPK1 p-SLP-76	5.52 to 6.52
O=C1CCC(N2Cc3cc(N4CCN(CCCN5CCN(c6cccc(-c7cnc8[nH]cc(C9CC9)c8c7Cl)n6)C(=O)C5)CC4)ccc3C2=O)C(=O)N1 (centres unmarked)	HPK1 p-SLP-76	≥ 6.52
CCc1c[nH]c2ncc(-c3cccc(N4CCN(S(=O)(=O)CCCN5CCN(c6ccc7c(c6)C(=O)N(C6CCC(=O)NC6=O)C7=O)CC5)CC4=O)c3)c(Cl)c12 (centres unmarked)	HPK1 p-SLP-76	≥ 6.52
O=C1CCC(N2Cc3cc(C4CCN(CCCN5CCN(c6cccc(-c7cnc8[nH]cc(C9CC9)c8c7Cl)c6)C(=O)C5)CC4)ccc3C2=O)C(=O)N1 (centres unmarked)	HPK1 p-SLP-76	≥ 6.52
Cn1nc(C2CCC(=O)NC2=O)c2ccc(C3CCN(CCCN4CCN(c5cccc(-c6cnc7[nH]cc(C8CC8)c7c6Cl)c5)C(=O)C4)CC3)cc21 (centres unmarked)	HPK1 p-SLP-76	5.52 to 6.52
CCc1c[nH]c2ncc(-c3cccc(N4CCN(C(=O)CCN5CCN(C(=O)c6ccc(C)c(N7CCC(=O)NC7=O)c6)CC5)CC4=O)c3)c(Cl)c12	HPK1 p-SLP-76	< 5.00
O=C1CCC(N2C(=O)c3ccc(N4CC(CCOC(=O)N5CCN(c6cccc(-c7cnc8[nH]cc(CC(F)F)c8c7Cl)c6)C(=O)C5)C4)cc3C2=O)C(=O)N1 (centres unmarked)	HPK1 p-SLP-76	< 5.00
O=C1CCC(N2C(=O)c3cc(F)c(N4CCN(CCCS(=O)(=O)N5CCN(c6cccc(-c7cnc8[nH]cc(C9CC9)c8c7Cl)c6)C(=O)C5)CC4)cc3C2=O)C(=O)N1 (centres unmarked)	HPK1 p-SLP-76	≥ 6.52
CCc1c[nH]c2ncc(-c3cccc(N4CCN(C(=O)COC5CCN(c6ccc7c(c6)C(=O)N(C6CCC(=O)NC6=O)C7=O)CC5)CC4=O)c3)c(Cl)c12 (centres unmarked)	HPK1 p-SLP-76	≥ 6.52
O=C1CCC(Nc2ccc(N3CCN(CCCS(=O)(=O)N4CCN(c5cccc(-c6cnc7[nH]cc(C8CC8)c7c6Cl)c5)C(=O)C4)CC3)c(F)c2)C(=O)N1 (centres unmarked)	HPK1 p-SLP-76	≥ 6.52
O=C1CCC(c2ccc(C3CCN(CCCN4CCN(c5cccc(-c6cnc7[nH]cc(C8CC8)c7c6Cl)c5)C(=O)C4)CC3)cc2)C(=O)N1 (centres unmarked)	HPK1 p-SLP-76	≥ 6.52
